# System: KMS-11 human myeloma cell line
# experiment.notes: Antiproliferative WST-8 assay, KMS-11
# Type: cell-based
# condition: 48 h; read-out: Antiproliferative Activity (IC50 ± SE) KMS-11
property.label: IC50 (µM)
Enter your answer as a number in µM; do not include the unit.

// sample N.N.[Cl][Pt][Cl] [Cisplatin, reference compound] , its IC50 was 4.91

====

# Test system: PANC-1 cancer cells
# experiment.notes: Anti-austerity assay (cytotoxicity under glucose starvation vs normal glucose)
# condition: Homo sapiens, PANC-1, 12 h, read-out: Anti-Austerity Activity (IC50 ± SE) Glucose −
property.label: log10 IC50 (log10 of the value in µM)
All values: base-10 log of IC50 in µM.

COc1ccc2cc(NC(=O)C3=NO[C@H]4[C@H](O)C=C[C@@H](Cl)[C@@]4(O)C3)c(=O)oc2c1OC [Compound 2, trichodermamide B] = 1.25
CCCCCC[C@H]1C(=O)O[C@H](C)[C@H](NC(=O)c2cccc(NC=O)c2O)C(=O)O[C@@H](C)[C@@H]1OC(=O)CC(C)C [Antimycin A, reference compound] = -1.79
COc1ccc2cc(NC(=O)[C@@]34C[C@@]5(O)C(ON3)[C@H](O)C=C[C@H]5S4)c(=O)oc2c1OC (some centres unmarked) = 1.88
CCC(C)C=CC=C(C)CC(C)C=CC=CC1OC(=O)C(O)C2OC12C (centres unmarked) = 1.69

COc1ccc(C2SSC34CC5(O)C(Cl)C=CC(O)C5ON3C(=O)C2NC4=O)c(O)c1OC (centres unmarked) [Compound 4, DC1149B] has a reported log10 IC50 of 1.35

====

# System: HUVEC (human umbilical vein endothelial cells)
# experiment.notes: Antiproliferative WST-8 assay, HUVEC
# Format: cell-based
# condition: Homo sapiens, HUVEC; 48 h, normal cell line; read-out: Antiproliferative Activity (IC50 ± SE) HUVEC
Listed here are molecules together with their documented IC50.

Below, each entry is followed by its recorded IC50 result.
CC(C)[C@@H](C)/C=C/[C@@H](C)[C@H]1CC[C@@H]2[C@]1(C)CC[C@H]1[C@]23C=C[C@]2(C[C@@H](O)CC[C@]12C)OO3 [Compound 5, ergosterol peroxide] = > 100 µM
COc1cc(O)c2c(=O)c(C)c(C)oc2c1 [Compound 8, 5-hydroxy-2,3-dimethyl-7-methoxychromone] = > 100 µM
COc1ccc2cc(NC(=O)[C@@]34C[C@@]5(O)C(ON3)[C@H](O)C=C[C@H]5S4)c(=O)oc2c1OC (stereo partly shown) [Compound 3, aspergillazine A] = 26.2 µM
COc1ccc2cc(NC(=O)C3=NO[C@H]4[C@H](O)C=C[C@@H](O)[C@@]4(O)C3)c(=O)oc2c1OC [Compound 1, trichodermamide A] = > 100 µM
COc1ccc2cc(NC(=O)C3=NO[C@H]4[C@H](O)C=C[C@@H](Cl)[C@@]4(O)C3)c(=O)oc2c1OC [Compound 2, trichodermamide B] = 1.69 µM
COc1ccc(C2SSC34CC5(O)C(Cl)C=CC(O)C5ON3C(=O)C2NC4=O)c(O)c1OC (stereo not shown) [Compound 4, DC1149B] = 6.94 µM

Now for another entry.
Lookup result for CCC(C)C=CC=C(C)CC(C)C=CC=CC1OC(=O)C(O)C2OC12C (stereo not shown) [Compound 9, nafuredin A] ; measured IC50: 2.45 µM

====

# Tested on: PANC-1 human pancreas cell line
# experiment.notes: Antiproliferative WST-8 assay, PANC-1
# Type: cell-based
# condition: Homo sapiens, PANC-1, 48 h; read-out: Antiproliferative Activity (IC50 ± SE) PANC-1
pIC50: −log10 of the molar value.
Listing of entries alongside the reported pIC50.

COc1cc(O)c2c(=O)c(C)c(C)oc2c1 [Compound 8, 5-hydroxy-2,3-dimethyl-7-methoxychromone] = < 4.00

Note to self: pIC50 recorded for CC(C)[C@@H](C)/C=C/[C@@H](C)[C@H]1CC[C@@H]2[C@]1(C)CC[C@H]1[C@]23C=C[C@]2(C[C@@H](O)CC[C@]12C)OO3 [Compound 5, ergosterol peroxide] was < 4.00

// pIC50 value for COc1ccc2cc(NC(=O)C3=NO[C@H]4[C@H](O)C=C[C@@H](O)[C@@]4(O)C3)c(=O)oc2c1OC [Compound 1, trichodermamide A] : < 4.00

====

# Tested on: KMS-11 human myeloma cell line
# experiment.notes: Antiproliferative WST-8 assay, KMS-11
# Type: cell-based
# condition: Homo sapiens, KMS-11, 48 h; read-out: Antiproliferative Activity (IC50 ± SE) KMS-11
Reported IC50 by item:

Worked examples follow.
COc1cc(O)c2c(=O)c(C)c(C)oc2c1 [Compound 8, 5-hydroxy-2,3-dimethyl-7-methoxychromone] = > 100 µM
CC(C)[C@@H](C)/C=C/[C@@H](C)[C@H]1CC[C@@H]2[C@]1(C)CC[C@H]1[C@]23C=C[C@]2(C[C@@H](O)CC[C@]12C)OO3 [Compound 5, ergosterol peroxide] = > 100 µM

For COc1ccc2cc(NC(=O)C3=NO[C@H]4[C@H](O)C=C[C@@H](O)[C@@]4(O)C3)c(=O)oc2c1OC [Compound 1, trichodermamide A] the compound record lists IC50 as > 100 µM

====

# Test system: PANC-1 cancer cells
# experiment.notes: Anti-austerity assay (cytotoxicity under glucose starvation vs normal glucose)
# condition: Homo sapiens, PANC-1, 12 h, read-out: Anti-Austerity Activity (IC50 ± SE) Glucose −
pIC50: −log10 of the molar value.
property.label: pIC50

Below are worked cases with known answers.
CC(C)[C@@H](C)/C=C/[C@@H](C)[C@H]1CC[C@@H]2[C@]1(C)CC[C@H]1[C@]23C=C[C@]2(C[C@@H](O)CC[C@]12C)OO3 [Compound 5, ergosterol peroxide] = < 4.00
COc1ccc2cc(NC(=O)C3=NO[C@H]4[C@H](O)C=C[C@@H](O)[C@@]4(O)C3)c(=O)oc2c1OC [Compound 1, trichodermamide A] = < 4.00

Consider the additional compound presented here.
Sure, the documented pIC50 for COc1cc(O)c2c(=O)c(C)c(C)oc2c1 [Compound 8, 5-hydroxy-2,3-dimethyl-7-methoxychromone] is < 4.00

Ref: paper PMC11085134
